test system: L1210 leukemia ip in BDF1 mice, survival T/C; test: NCI In Vivo Anticancer Drug Screen. Data for tumor model L1210 Leukemia (intraperitoneal) in B6D2F1 (BDF1) mice; conditions: endpoint: mean survival time; dose: 200.0 mg/kg/injection; schedule: Q01DX001 (ip); vehicle: Klucel (hydroxypropylcellulose) (HPC); higher = longer survival
Inconclusive results and toxic doses are left out.
As shown below, each of these molecules has a reported T/C value.
MEASUREMENT_LABEL: T/C

>  <MOLECULE>
CS(=O)(=O)Oc1ccccc1N(S(C)(=O)=O)S(C)(=O)=O

>  <RESULT>
110 % of control

$$$$
>  <MOLECULE>
COc1ccccc1/C=N/N=C(/N)N[N+](=O)[O-]

>  <RESULT>
101 % of control

$$$$
>  <MOLECULE>
CC(=O)CC(C)=Nc1cccc(Cl)c1

>  <RESULT>
103 % of control

$$$$
>  <MOLECULE>
CN1C(C(=O)c2ccc(-c3ccccc3)cc2)C1c1ccccc1 (configuration not stated)

>  <RESULT>
97 % of control

$$$$
>  <MOLECULE>
CC(=O)Oc1c(C)c(Br)c(OC(C)=O)c(-c2c(C)cc(C)c(Br)c2C)c1Br

>  <RESULT>
95 % of control

$$$$
>  <MOLECULE>
CCSCC1OC(n2ncc3c(N)ncnc32)C(O)C1O (configuration not stated)

>  <RESULT>
93 % of control

$$$$
>  <MOLECULE>
OC1/C(=C/c2ccco2)CCC2CCCCC21 (configuration not stated)

>  <RESULT>
98 % of control

$$$$
>  <MOLECULE>
CCOC(=O)c1[nH]c(C)c(/C=C/C(=O)O)c1C

>  <RESULT>
98 % of control

$$$$
>  <MOLECULE>
Nc1nccc2n[nH]nc12

>  <RESULT>
92 % of control

$$$$
>  <MOLECULE>
O=C(N/N=C/c1[nH]c(=S)[nH]c(=O)c1Cc1ccc(Cl)cc1)c1ccncc1

>  <RESULT>
101 % of control

$$$$
>  <MOLECULE>
N#CC(C#N)=CN

>  <RESULT>
106 % of control

$$$$
>  <MOLECULE>
Cc1ccc(S(=O)(=O)N(C)c2cc(Cl)c(C#N)c(Cl)c2)cc1

>  <RESULT>
96 % of control

$$$$

---

system: L1210 leukemia ip in BDF1 mice, survival T/C; experiment: NCI In Vivo Anticancer Drug Screen. Data for tumor model L1210 Leukemia (intraperitoneal) in B6D2F1 (BDF1) mice; conditions: endpoint: mean survival time; dose: 100.0 mg/kg/injection; schedule: Q01DX001 (ip); vehicle: other; higher = longer survival
Inconclusive results and toxic doses are left out.
Below, each of the compounds is paired with its reported T/C value.

>  <STRUCTURE_SMILES>
O=C(O)CC[S-].[Ag+]

>  <T/C>
91 % of control

$$$$
>  <STRUCTURE_SMILES>
N#CC(c1ccccc1)c1ccccc1

>  <T/C>
97 % of control

$$$$
>  <STRUCTURE_SMILES>
O=C(OCCCCCCCCOC(=O)c1cccc([N+](=O)[O-])c1)c1cccc([N+](=O)[O-])c1

>  <T/C>
102 % of control

$$$$
>  <STRUCTURE_SMILES>
O=c1oc2cc(N=Cc3ccc4c(c3)OCO4)ccc2c2ccccc12

>  <T/C>
91 % of control

$$$$
>  <STRUCTURE_SMILES>
NC(N)=NC(N)=Nc1ccc(N=C(N)N=C(N)N)cc1

>  <T/C>
104 % of control

$$$$
>  <STRUCTURE_SMILES>
O=C(c1cccc([N+](=O)[O-])c1)c1ccc(O)cc1O

>  <T/C>
103 % of control

$$$$
>  <STRUCTURE_SMILES>
O=C(O)/C=C/c1ccncc1

>  <T/C>
103 % of control

$$$$
>  <STRUCTURE_SMILES>
Cc1c([N+](=O)[O-])ccc2ccccc12

>  <T/C>
103 % of control

$$$$
